The measurements presented in this section are drawn from PubChem BioAssay AID1159580.

Would you mind telling me the reported normalized growth of each entry?
- procedure-details: chemical genetic growth profiling, strain panel (AID 1159580);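 further: tested at 20 µM; growth read once vehicle control cultures reached saturation at 30 °C; 1 = growth at the plate median or of vehicle wells; lower values mean less growth of the strain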
- details: S. cerevisiae deletion strains, growth OD, locus YEL037C, strain rad23, active compounds read low
The campaign covered roughly 5,500 compounds. About 2,000 (36%) were called active. Roughly 18% stayed inconclusive and do not appear here. This is one part of the list.
Give bare numbers.

# example entries with known answers
Input line: Please give the measured normalized growth for this molecule: C[C@@H]1CC[C@@]2(OC1)OC1CC3C4CC=C5C[C@@H](O)CC[C@]5(C)C4CC[C@]3(C)C1[C@@H]2C (some centres undefined)
Output line: 0.994

Input line: Further, for "COc1cccc2c(C)cc(=O)[nH]c12" ?
Output line: 0.974

Input line: And the next one, "CC(C)[N+](C)(CCC(C(N)=O)(c1ccccc1)c1ccccc1)C(C)C" ?
Output line: 0.987

Input line: O=c1ccc2cc(OC3OC(CO)C(O)C(O)C3O)c(O)cc2o1 (centres undefined) ?
Output line: 0.986

Input line: Check "COC1=CC(=O)C(O)=C/C1=C\C=C\c1ccccc1" too.
Output line: 0.0597

Input line: Entry "C=C[C@H]1CN2CC[C@H]1C[C@@H]2[C@@H](OC(=O)OCC)c1ccnc2ccc(OC)cc12" please
Output line: 0.983

Input line: Try Oc1cc2c(cc1O)C1c3ccc(O)c(O)c3OCC1(O)C2 (centres undefined) next.
Output line: 1.02

Input line: // repeat for Oc1ccc2c(c1)OCC1(O)Cc3cc(O)c(O)cc3C21 (centres undefined) and report
Output line: 1.02

Further cases:
Input line: Given the molecule CC(=O)Oc1ccc2c(c1OC(C)=O)OCC1(O)Cc3c(cc(OC(C)=O)c(OC(C)=O)c3OC(C)=O)C21 (centres undefined) , what is its reported normalized growth?
Output line: 1.01

---

- procedure-details: chemical genetic growth profiling, strain panel (AID 1159580);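 further: tested at 20 µM; growth read once vehicle control cultures reached saturation at 30 °C; 1 = growth at the plate median or of vehicle wells; lower values mean less growth of the strain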
- details: S. cerevisiae deletion strains, growth OD, locus YDL040C, strain nat1, active compounds read low
The campaign covered roughly 5,500 compounds. About 2,000 (36%) were called active. Inconclusive results (about 18%) are left out. The list shows a part of the results.
measured-endpoint: normalized growth

Input line: If you can, please state the reported normalized growth value of O=C1C=C2C(=CCOC2O)O1 (stereo not drawn) .
Output line: 0.887 (active)

Input line: Also CC(=O)Oc1ccc2c(c1C(C)C)CCC1C(C)(C)CCC[C@]21C (stereo partly drawn) , if possible.
Output line: 1 (inactive)

Input line: Also "CCc1cc(C(N)=S)ccn1" ?
Output line: 0.998 (inactive)

Input line: Next record, please: "CC(=O)OCC1=C(C(=O)O)N2C(=O)[C@@H](NC(=O)Cc3cccs3)[C@H]2SC1"
Output line: 1.02 (inactive)

Input line: Now try COC(=O)[C@]1(C)CCC[C@]2(C)c3ccc(C(C)C)cc3C(=O)CC12 (stereo partly drawn) .
Output line: 0.96 (inactive)

Input line: Queued: "COc1cccc2c(C)cc(=O)[nH]c12"
Output line: 0.972 (inactive)

Input line: Quick one: "Cc1[nH]ccc2c1[nH]c1cc(=O)ccc12"
Output line: 0.993 (inactive)

Next:
Input line: Which measured normalized growth value corresponds to O=c1ccc2cc(OC3OC(CO)C(O)C(O)C3O)c(O)cc2o1 (stereo not drawn) ?
Output line: 0.991 (inactive)

---

- procedure-details: chemical genetic growth profiling, strain panel (AID 1159580);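 further: tested at 20 µM; growth read once vehicle control cultures reached saturation at 30 °C; 1 = growth at the plate median or of vehicle wells; lower values mean less growth of the strain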
- details: S. cerevisiae deletion strains, growth OD, locus YPR119W, strain clb2, active compounds read low
In all, about 5,500 compounds went through this assay and about 2,000 (36%) were called active. Another 18% or so got no clear call; they are omitted. This is one part of the list.
Please provide measured normalized growth for the entries that follow.

Input line: # get_value(readout='normalized growth', item= "CC1=CC(=O)C2=C(C)CC[C@@H]3[C@H](OC(=O)[C@H]3C)[C@@H]12" )
Output line: 1 (inactive)

Input line: # iterate: COC(=O)C[C@H]1C(C)(C)C2(Cl)O[C@@]34CC2C(=O)[C@]1(C)C3CC[C@]1(C)C4=CC(=O)O[C@H]1c1ccoc1 (stereo partly drawn)
Output line: 0.989 (inactive)

Input line: Another molecule to check: CN[C@@H]1C(O)[C@@H](O[C@@H]2[C@@H](O)[C@H](O[C@H]3OC(CN)=CC[C@H]3N)[C@@H](N)C[C@H]2N)OC[C@]1(C)O (stereo partly drawn)
Output line: 0.984 (inactive)

Input line: Record: COC(=O)C1OC(=O)C2OC23C1(C)CCC1C2(C)C(OC(C)=O)CC(OC(C)=O)C(C)(C)C2CC(=O)C13C (stereo not drawn)
Output line: 0.996 (inactive)

Input line: # iterate: "COc1c2ccoc2cc2oc(=O)ccc12"
Output line: 0.964 (inactive)

Input line: Entry to check: "CCN1C[C@]2(C)CC[C@H](OC)[C@]34C2[C@H](O)[C@]2(OCO[C@@]25C[C@H](OC)[C@H]2C[C@]3(O)C5[C@H]2O)C14"
Output line: 1 (inactive)

Input line: # repeat for NS(=O)(=O)c1cc(C2(O)NC(=O)c3ccccc32)ccc1Cl (stereo not drawn)
Output line: 1.01 (inactive)

Input line: Subsequent entry: "C=C[C@H]1CN2CC[C@H]1C[C@@H]2[C@@H](OC(=O)OCC)c1ccnc2ccc(OC)cc12"
Output line: 1.01 (inactive)

Would you mind giving normalized growth for every molecule in the list below?
1. C[C@@H]1O[C@@H](OC[C@H]2OC(Oc3c(-c4ccc(O)c(O)c4)oc4cc(O)cc(O)c4c3=O)[C@H](O)[C@@H](O)[C@@H]2O)[C@H](O)[C@H](O)[C@H]1O (stereo partly drawn)
2. COc1cc2occc2c2oc(=O)ccc12
3. CCC(c1ccc(O)cc1)C(CC)c1ccc(O)cc1 (stereo not drawn)
4. COc1c(C(C)C)oc2cc3oc(=O)ccc3cc12
5. Cc1ccccc1OCC(O)CO (stereo not drawn)

Output line:
1. 1 (inactive)
2. 0.992 (inactive)
3. 1 (inactive)
4. 0.957 (inactive)
5. 0.997 (inactive)

---

- procedure-details: chemical genetic growth profiling, strain panel (AID 1159580);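 further: tested at 20 µM; growth read once vehicle control cultures reached saturation at 30 °C; 1 = growth at the plate median or of vehicle wells; lower values mean less growth of the strain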
- details: S. cerevisiae deletion strains, growth OD, locus YMR307W, strain GAS1, active compounds read low
In all, about 5,500 compounds went through this assay and about 2,000 (36%) were called active. Roughly 18% stayed inconclusive and do not appear here. The list shows a part of the results.
Would you mind telling me the reported normalized growth of each entry?
Numbers only.

Worked cases, answers included:
Input line: # normalized growth lookup, item COC(=O)[C@]1(C)CCC[C@]2(C)c3ccc(C(C)C)cc3C(=O)CC12 (stereo partly drawn)
Output line: 0.953

Input line: What do we get for "CC(C)[C@@]1(NC(=O)[C@@H]2C[C@@H]3c4cccc5[nH]cc(c45)C[C@H]3N(C)C2)O[C@@]2(O)[C@@H]3CCCN3C(=O)[C@H](Cc3ccccc3)N2C1=O" ?
Output line: 0.985

Input line: Let us now turn to OC1(C(F)(F)F)CC(c2ccc3ccccc3c2)=NN1 (stereo not drawn)
Output line: 0.13

Input line: Also "CC(C)CN(C)c1nc(N)c(C(=O)N=C(N)N)nc1Cl" , if possible.
Output line: 0.971

Input line: "CC(C)(O)[C@@H]1Cc2cc3ccc(=O)oc3cc2O1" ?
Output line: 1.1

Input line: Repeat for the following molecule: "CN(C)c1ccc(/C=C2\C(=O)Nc3ccccc32)cc1"
Output line: 0.984

Input line: Please do the same for "CCOC(=O)NC1=C(C2CC2)C(=O)C(NC(=O)OCC)=C(C2CC2)C1=O" as well.
Output line: 0.999

Input line: How about "Cc1ccc(S(=O)(=O)N[C@@H](CCCCN)C(=O)CCl)cc1" ?
Output line: 1.01

Input line: Same thing, different molecule: "NC(=O)OCC(COC(N)=O)c1ccccc1"
Output line: 0.985

Input line: How about "CC1=CC(=O)C2=C(C)CC[C@@H]3[C@H](OC(=O)[C@H]3C)[C@@H]12" ?
Output line: 1

Please look at the items below and tell me normalized growth for each one, in order.
1. O=C(O)C1=C[C@@H](O)[C@@H](O)[C@H](O)C1
2. FC(F)(F)c1cc(CO[C@H]2CCCN[C@H]2c2ccccc2)cc(C(F)(F)F)c1
3. NC(=S)NCCCC(N)C(=O)O (stereo not drawn)
4. COc1ccc2c(c1)CCC1C2CC[C@@]2(C)C1CC[C@@H]2O (stereo partly drawn)
5. COc1ccc2c(c1)CCC1C2CC[C@@]2(C)C1CC[C@@H]2NCCCCCCN1C(=O)C=CC1=O (stereo partly drawn)
6. CC(C)c1c(O)ccc2c1CCC1C(C)(C)CCC[C@]21C (stereo partly drawn)
7. Clc1ccc(C=C2c3ccccc3-c3ccccc32)cc1
8. CC(=O)[C@@]1(O)CCC2C3C[C@H](C)C4=CC(=O)C=CC4(C)[C@@]3(F)[C@@H](O)C[C@@]21C (stereo partly drawn)

Output line:
1.04
0.964
1.01
0.237
0.93
0.179
1.03
0.976

Below is a list of molecules. For each, state its recorded normalized growth.
1. N#C/C(=C\c1ccc(O)c(O)c1)C(=O)NCCCNC(=O)/C(C#N)=C/c1ccc(O)c(O)c1
2. COc1cc(/C=C(\C#N)C(=O)c2ccc(O)c(O)c2)cc(I)c1O
3. CC(C)(C)c1cc(C=C(C#N)C#N)cc(C(C)(C)C)c1O
4. CC(C1OC(C)(C)C(O)C1O)[C@@H]1CC[C@]2(C)C3=CCC4C(C)(C)C(=O)CC[C@]4(C)C3CC[C@@]12C (stereo partly drawn)

Output line:
[0.982, 1.03, 0.999, 0.775]
